# Assay Notes: in vitro
# Parameters: Viability of infected HeLa host cells, resazurin conversion, bulk resorufin fluorescence relative to DMSO
# Experimental Context: human, hela cells; bulk resorufin, mean of 2

Molecule: O=C(NCc1cccnc1)/C(=C/c1ccc(-c2cccc(Cl)c2)o1)S(=O)(=O)c1ccccc1
viability at 28.5 h, 5 µM [%]: 100
--
Molecule: CC(Cc1nc(-c2nccn2C)cs1)n1cc(Cl)cn1 (centres unmarked)
viability at 28.5 h, 5 µM [%]: 100
--
Molecule: O=C(c1cccs1)N1C[C@H](c2ccc(F)cc2)[C@H]2CN(Cc3ccccc3)CC[C@H]21
viability at 28.5 h, 5 µM [%]: 91.7
--
Molecule: O=C(Nc1nccs1)c1cc(C2CCN(C(=O)CC3CCCCC3)C2)nc2ccccc12 (centres unmarked)
viability at 28.5 h, 5 µM [%]: 93
--
Molecule: CN(C)CCCNC(=O)Nc1cccc(-c2nc(-c3ccc(C#N)cc3)cnc2N)c1
viability at 28.5 h, 5 µM [%]: 89.1
--
Molecule: Cn1cc(C(c2ccc(OCC(=O)O)cc2)c2cn(C)c3ccccc23)c2ccccc21
viability at 28.5 h, 5 µM [%]: 111
--
Molecule: COc1nccnc1NS(=O)(=O)c1ccc(Nc2c([N+](=O)[O-])cc([N+](=O)[O-])c3nonc23)cc1
viability at 28.5 h, 5 µM [%]: 95.9
--
Molecule: Cc1noc(-c2ccc3c(c2O)OCCO3)c1-c1ccc(Cl)cc1
viability at 28.5 h, 5 µM [%]: 97.6
--
Molecule: O=C(CSCc1c(F)cccc1Cl)Nc1ccc(S(=O)(=O)N2CCCCC2)cc1
viability at 28.5 h, 5 µM [%]: 104
--
Molecule: Oc1c(CN2CCN(c3ccc(F)cc3)CC2)cc(Br)c2cccnc12
viability at 28.5 h, 5 µM [%]: 97.9
--
Molecule: Cc1noc(NS(=O)(=O)c2ccc(NC(=O)COc3ccc(Cl)cc3Cl)cc2)c1C
viability at 28.5 h, 5 µM [%]: 97.3
--
Molecule: Cc1ccc(NC(=O)N(Cc2ccc(-c3ccccc3)cc2)CC(C)(C)CN)c(C)c1 [CBK002428C]
viability at 28.5 h, 5 µM [%]: 88.8
--
Molecule: Cc1c(OCc2cnn(-c3ccccc3)c2)ccc(-c2n[nH]c(C(F)(F)F)c2-c2ccccc2)c1O
viability at 28.5 h, 5 µM [%]: 90.9
--
Molecule: CCCCc1ccc(Nc2csc(N)n2)cc1
viability at 28.5 h, 5 µM [%]: 84.9
--
Molecule: CC(=O)NC[C@H]1CN(c2ccc3c(c2)CCN(C(=O)Cc2ccccc2)CC3)C(=O)O1
viability at 28.5 h, 5 µM [%]: 95.9
--
Molecule: Oc1ccccc1Nc1nc(NC2CCCC2)c2ccccc2n1 [CBK268402C]
viability at 28.5 h, 5 µM [%]: 94.1
--
Molecule: Fc1cc(Br)c(CNCc2ncc[nH]2)c(N2CCCCC2)c1F
viability at 28.5 h, 5 µM [%]: 88.7
--
Molecule: Nc1ncc(-c2ccc(C(=O)N3CCOCC3)cc2)cc1C(=O)NCc1ccc(Cl)c(Cl)c1
viability at 28.5 h, 5 µM [%]: 93.3
--
Molecule: Cc1cc(NS(=O)(=O)c2ccc(NC(=O)CCCOc3ccc(Cl)cc3Cl)cc2)no1
viability at 28.5 h, 5 µM [%]: 93.5
--
Molecule: COc1ccc([C@@]23CC=C(N(Cc4ccccc4)C(=O)Nc4ccc(F)c(F)c4)C[C@@H]2N(C)CC3)cc1OC
viability at 28.5 h, 5 µM [%]: 95
--
Molecule: OCCn1ncc2c(NCc3cccc(Cn4ccnc4)c3)ncnc21
viability at 28.5 h, 5 µM [%]: 92
--
Molecule: CC(=O)NC[C@H]1CN(c2ccc(C#N)c(C)c2)C(=O)O1
viability at 28.5 h, 5 µM [%]: 90.3
--
Molecule: Cc1ccc(C(=O)NCCCN2CCC3(CC2)OCCc2c3[nH]c3ccccc23)cc1
viability at 28.5 h, 5 µM [%]: 88
--
Molecule: CCc1nnc(NS(=O)(=O)c2ccc(NC(=S)Nc3ccc(F)cc3)cc2)s1
viability at 28.5 h, 5 µM [%]: 89.3
--
Molecule: O=C(Nc1ccc(S(=O)(=O)Nc2ncccn2)cc1)c1ccc2c(c1)OCCO2
viability at 28.5 h, 5 µM [%]: 94.2
--
Molecule: Nc1ccc(C(=O)Nc2ccc(-c3nc4ccc(NC(=O)c5ccc(N)cc5)cc4[nH]3)cc2)cc1
viability at 28.5 h, 5 µM [%]: 93.2
--
Molecule: Cc1ccc(OCc2ccccc2)c(C(CCN(C(C)C)C(C)C)c2ccccc2)c1 (centres unmarked)
viability at 28.5 h, 5 µM [%]: 92.3
--
Molecule: COC(=O)N1CCc2ccc(N3C[C@H](CNC(C)=O)OC3=O)cc2CC1
viability at 28.5 h, 5 µM [%]: 85.8
--
Molecule: Nc1cccc2c(OCCO)cccc12 [CBK001976C]
viability at 28.5 h, 5 µM [%]: 89
--
Molecule: O=[N+]([O-])c1cc2c(cc1C(Nc1ccccn1)c1cc(Cl)c3cccnc3c1O)OCO2 (centres unmarked)
viability at 28.5 h, 5 µM [%]: 98.7
--
Molecule: COc1ccc(S(=O)(=O)Nc2ccc(S(=O)(=O)Nc3nccs3)cc2)c([N+](=O)[O-])c1
viability at 28.5 h, 5 µM [%]: 123
--
Molecule: OC(COc1ccc(Br)cc1)CN1CCCN(c2nc3ccc(Cl)cc3s2)CC1 (centres unmarked)
viability at 28.5 h, 5 µM [%]: 88.1
--
Molecule: CN(C)c1ccc(Nc2nc(NCCO)c3ccccc3n2)cc1 [CBK268392C]
viability at 28.5 h, 5 µM [%]: 103
--
Molecule: COc1ccc2[nH]cc(CCNC(=O)c3ccc([N+](=O)[O-])c(C)c3)c2c1
viability at 28.5 h, 5 µM [%]: 90.5
--
Molecule: CC(=O)NC[C@H]1CN(c2ccc3c(c2)CCN(C(C)=O)CC3)C(=O)O1
viability at 28.5 h, 5 µM [%]: 95.1
